Source listed as patent US20150139990A1.

Biological target: T1, human CD81 on CD81-expressing cells (Jurkat E6.1, human PBMC, Ramos) (human, UniProt P60033 1-236)
T1 sequence: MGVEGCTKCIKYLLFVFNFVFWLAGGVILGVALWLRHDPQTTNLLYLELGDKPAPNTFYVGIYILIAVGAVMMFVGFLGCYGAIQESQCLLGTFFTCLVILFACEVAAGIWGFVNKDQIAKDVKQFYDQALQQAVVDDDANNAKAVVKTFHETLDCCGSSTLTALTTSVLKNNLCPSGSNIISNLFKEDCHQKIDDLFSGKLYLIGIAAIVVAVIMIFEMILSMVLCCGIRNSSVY
Assay: cell-based or functional assay
measured_attribute: Jurkat chemotaxis (% of control IgG4) at 10 µg/mL (%)

1. 002-A07 N113S (antibody, human IgG4 S228P, lambda, V domains shown, IgG4 S228P; glycosylation site mutant of 002-A07 VL) VH: EVQLLESGGGLVQPGGSLRLSCAASGFTFSSNYMSWVRQAPGKGLEWVSYISSSSTYTDYADSVKGRFTISRDNSKNTLYLQMNSLRAEDTAVYYCARYSYGRDNFDYWGQGTLVTVSS VL: QSVLTQPPSASGTPGQRVTISCTGSTSNIGAGYDTHWYQQLPGTAPKLLIYGNSNRPSGVPDRFSGSKSGTSASLAISGLRSEDEADYYCQSYDTSLSVWVFGGGTKLTVLG	12
2. 002-F05 (antibody, human IgG4 S228P, lambda, V domains shown, IgG4 S228P) VH: EVQLLESGGGLVQPGGSLRLSCAASGFTFSSNYMSWVRQAPGKGLEWVSYISSSSTYTDYADSVKGRFTISRDNSKNTLYLQMNSLRAEDTAVYYCARYSYGRDDFDYWGQGTLVTVSS VL: QSVLTQPASASGTPGQRVTISCTGSTSNIGAGYDTHWYQQLPGTAPKLLIYGNSNRPSGVPDRFSGSKSGTSASLAISGLRSEDEADYYCQSYDTNLNVWVFGGGTKLTVLG	7
3. 002-F01 (antibody, human IgG4 S228P, lambda, V domains shown, IgG4 S228P) VH: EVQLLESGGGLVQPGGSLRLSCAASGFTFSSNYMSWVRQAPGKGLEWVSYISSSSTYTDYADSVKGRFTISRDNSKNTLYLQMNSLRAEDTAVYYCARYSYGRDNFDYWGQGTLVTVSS VL: QSVLTQPPSASGTPGQRVTISCTGSTSNIGAGYDTHWYQQLPGTAPKLLIYGNSNRPSGVPDRFSGSKSGTSASLAISGLRSEDEADYYCQSYDTNLSAWVFGGGTKLTVLG	9
4. 002-C09 (antibody, human IgG4 S228P, lambda, V domains shown, IgG4 S228P) VH: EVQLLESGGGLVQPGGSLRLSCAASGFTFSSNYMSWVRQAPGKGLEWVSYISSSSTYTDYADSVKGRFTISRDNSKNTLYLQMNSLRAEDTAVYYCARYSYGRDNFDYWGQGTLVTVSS VL: QSVLTQPASASGTPGQRVTISCTGSTSNIGAGYGTHWYQRLPGTAPKLLIYGNSNRPSGVPDRFSGSKSGTSASLAISGLRSEDEADYYCQSYDTNLSGWVFGGGTKLTVLG	11
